Test system: L1210 leukemia ip in BDF1 mice, survival T/C
Assay: NCI In Vivo Anticancer Drug Screen. Data for tumor model L1210 Leukemia (intraperitoneal) in B6D2F1 (BDF1) mice
Details: endpoint: mean survival time; dose: 200.0 mg/kg/injection; schedule: Q01DX009 (ip); vehicle: saline with Tween-80; higher = longer survival
Method: The antitumor activity of compounds was measured in mice bearing transplantable tumors. Survival or tumor size were measured and the results are expressed as the measurement made in the treated group (T) divided by the measurement made in the vehicle treated control group (C). The tumor model used in this assay is L1210 Leukemia (intraperitoneal) in B6D2F1 (BDF1) mice
Toxic doses and inconclusive results are not listed.
parameter.measured: T/C

1. O=c1[nH]cnc2c(Cl)c(C(Cl)(Cl)Cl)nn12 (tested in a mixture with another compound) ... 92 % of control

Fill blank: measured T/C of the molecule "CCCCSCCO" is ____. 96 % of control

What do you have for "CCCCCOC(=O)Nc1cccc(OC(=O)NC)c1" ? 96 % of control

What do you have for "CCCCCCCCC(=O)CCCCCC" ? 97 % of control

What do you have for "O=C(NO)Nc1ccccc1" ? 109 % of control

What do you have for NC(=O)CC(NC(=O)CCl)C(=O)O (configuration not stated) ? 87 % of control

What do you have for CCOC(=O)CNCC(O)C(Cl)(Cl)Cl (configuration not stated) ? 86 % of control

What do you have for "CC(=O)CCCN1C(=O)c2ccccc2C1=O" ? 96 % of control

* * *

System: L1210 leukemia ip in BDF1 mice, survival T/C
Assay: NCI In Vivo Anticancer Drug Screen. Data for tumor model L1210 Leukemia (intraperitoneal) in B6D2F1 (BDF1) mice
Conditions: endpoint: mean survival time; dose: 100.0 mg/kg/injection; schedule: Q04DX002 (ip); vehicle: Klucel (hydroxypropylcellulose) (HPC); higher = longer survival
Method: The antitumor activity of compounds was measured in mice bearing transplantable tumors. Survival or tumor size were measured and the results are expressed as the measurement made in the treated group (T) divided by the measurement made in the vehicle treated control group (C). The tumor model used in this assay is L1210 Leukemia (intraperitoneal) in B6D2F1 (BDF1) mice
Toxic doses and inconclusive results are not listed.
parameter.measured: T/C

Consider the worked cases shown below.
1. O=C(Oc1ccc(S(=O)(=O)F)cc1F)c1ccccc1Cl ... 95 % of control
2. N/N=C(/CC1C(=O)Nc2ccccc21)c1ccccc1 (stereo not drawn) ... 94 % of control
3. COC(C(=O)O)c1cccc2ccccc12 (stereo not drawn) ... 113 % of control

Here is the next item to consider.
Fill blank: measured T/C of the compound CCCCCCCC(=O)N1CCCCC1C (stereo not drawn) is ____. 103 % of control

* * *

Recorded T/C by entry
System: L1210 leukemia ip in BDF1 mice, survival T/C
Experiment: NCI In Vivo Anticancer Drug Screen. Data for tumor model L1210 Leukemia (intraperitoneal) in B6D2F1 (BDF1) mice
Details: endpoint: mean survival time; dose: 100.0 mg/kg/injection; schedule: Q01DX009 (ip); vehicle: Klucel (hydroxypropylcellulose) (HPC); higher = longer survival
Inconclusive results and toxic doses are left out.

1. O=S(=O)(c1ccc(Cl)cc1)C(Cl)(Cl)Cl ... 93 % of control
2. NC(=O)NC(O)C(Cl)(Cl)Cl (configuration not stated) ... 100 % of control
3. O=C(Nc1ccccc1)Oc1c(Cl)cc(Cl)c(Cl)c1[N+](=O)[O-] ... 91 % of control
4. CC(CC(C#CC(CC(C)CC(C)(C)C)N(C)C)N(C)C)CC(C)(C)C (configuration not stated) ... 96 % of control

Fill blank: measured T/C of the compound ClC1(Cl)C2CCC3C(CCC21)C3(Cl)Cl (configuration not stated) is ____. 100 % of control

What do you have for "CN(C)N=C(c1ccccc1)c1ccccc1" ? 97 % of control

What do you have for "O=C(O)COc1ccc(OCC(=O)O)cc1" ? 97 % of control

What do you have for "Cc1ccc(S(=O)(=O)OCCCCCCCCCCCCCCOS(=O)(=O)c2ccc(C)cc2)cc1" ? 97 % of control

What do you have for "COC(=O)c1ccccc1NC(=O)Nc1ccccc1Cl" ? 88 % of control

What do you have for "CCCCN(CCCC)C(=S)S[As](SC(=S)N(CCCC)CCCC)SC(=S)N(CCCC)CCCC" ? 97 % of control

What do you have for "CCC/C=C/C(C)C" ? 105 % of control

What do you have for "COc1cc2c(c(OC)c1OC)-c1ccc(=O)c(OC)cc1[C@@H](NC(=O)CCl)CC2" ? 103 % of control
